Values compiled from paper PMC7819943.

# system tested: OsWOX13 (Oryza sativa, UniProt Q5QMM3 1-267)
# Sequence: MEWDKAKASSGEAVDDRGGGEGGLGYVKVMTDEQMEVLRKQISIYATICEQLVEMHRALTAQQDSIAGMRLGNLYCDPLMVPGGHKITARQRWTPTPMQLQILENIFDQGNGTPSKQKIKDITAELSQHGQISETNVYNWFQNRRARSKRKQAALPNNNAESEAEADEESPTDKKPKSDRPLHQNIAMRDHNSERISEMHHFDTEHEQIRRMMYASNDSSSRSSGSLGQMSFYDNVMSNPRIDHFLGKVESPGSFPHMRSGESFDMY
# run description: protein-binding microarray (RPBM); PBS, 2% BSA, 51.3 ng/ul salmon testes DNA, 50 uM zinc acetate, 200 nM TF, 25 C, 1 h; high values mean tight binding
# measurement setup: protein: recombinant; tags: N-terminal polyhistidine and DsRed monomer fusion (pET32a); label: CyDye5-dUTP incorporated in the synthesized complementary strand; 3' TTTTT single-stranded linker to array surface; dsDNA, one strand shown
The full ranking holds about 35,000 sequences; the median of “fluorescence intensity (a.u.)” is about 10,000, and the highest 2% start at about 52,000. Only a selection was taken, and the highest values are over-represented in it overall.
property name: binding signal

These recorded examples may help you get a feel for the data.
CCTAATTAATCCGTCATTAGCAAATGTTTATTGTAGCACCCGGAGTCACCTAGTGCAG; 41300 fluorescence intensity (a.u.)
TTGATAGATTGATCGTTAGTGCTTTTGTCCAATTTGTTCACGGAGTCACCTAGTGCAG; 64200 fluorescence intensity (a.u.)
ATTTAATTTAATTTAATTGTTCCTCCTCTTCTTCTTCTCTCGGAGTCACCTAGTGCAG; 41000 fluorescence intensity (a.u.)
TGGATTAATTTCTCCTCTTCTCTTCCTCCCGTTTATAATACGGAGTCACCTAGTGCAG; 6370 fluorescence intensity (a.u.)
TTTTGTAACTGATCGTTATTAGATCGGATTTGTTCATTGTCGGAGTCACCTAGTGCAG; 3360 fluorescence intensity (a.u.)

QUERY: Look at this sequence and give its reported binding signal. "TTGTCCATCACAATTGCTAATTAACTAAGACACCCTTCCTCGGAGTCACCTAGTGCAG"
RESULT: 21100 fluorescence intensity (a.u.)

QUERY: Using the record for "TTTACTCATGATTACGCTAATTATTCCACTCAATTCTCACCGGAGTCACCTAGTGCAG" , report its binding signal.
RESULT: 26100 fluorescence intensity (a.u.)

QUERY: Need binding signal, item "TATGATTGATTGGAGGGATCAATTAATTACTCATTCTCCACGGAGTCACCTAGTGCAG"
RESULT: 64700 fluorescence intensity (a.u.)

QUERY: Give its binding signal value. Item: "CTCCACTAATTACTCCACCCAACCATTGGATTCAATGGGCCGGAGTCACCTAGTGCAG"
RESULT: 21700 fluorescence intensity (a.u.)

----------
# system tested: OsWOX13 (Oryza sativa, UniProt Q5QMM3 1-267)
# Sequence: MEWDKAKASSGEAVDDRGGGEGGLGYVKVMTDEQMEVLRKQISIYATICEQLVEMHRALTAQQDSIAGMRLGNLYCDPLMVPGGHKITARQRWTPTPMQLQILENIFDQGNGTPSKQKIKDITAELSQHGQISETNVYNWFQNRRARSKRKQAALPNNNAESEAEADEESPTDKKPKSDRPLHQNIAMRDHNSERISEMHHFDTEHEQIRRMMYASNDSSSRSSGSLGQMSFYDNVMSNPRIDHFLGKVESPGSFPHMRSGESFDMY
# run description: protein-binding microarray (RPBM); PBS, 2% BSA, 51.3 ng/ul salmon testes DNA, 50 uM zinc acetate, 200 nM TF, 25 C, 1 h; high values mean tight binding
# measurement setup: protein: recombinant; tags: N-terminal polyhistidine and DsRed monomer fusion (pET32a); label: CyDye5-dUTP incorporated in the synthesized complementary strand; 3' TTTTT single-stranded linker to array surface; dsDNA, one strand shown
Over roughly 35,000 sequences, “fluorescence intensity (a.u.)” has its median near 10,000; the highest 2% begin near 52,000. This excerpt belongs to a sample that is enriched for the highest values.
Item-by-item account of binding signal

CTGAAACTGATTGAACTTTTGTCCATTTTCAGATCGTGTACGGAGTCACCTAGTGCAG; 49400 fluorescence intensity (a.u.)
TCATGCAGTAATTAATCAGTGACAGTGAACCTTGTTAGTACGGAGTCACCTAGTGCAG; 17400 fluorescence intensity (a.u.)
GAGATAAATGATCAACTAGTCCGTGAATTTGACACCGATGCGGAGTCACCTAGTGCAG; 7110 fluorescence intensity (a.u.)
GTAAACTGCAATCAATCAGCCATTAAAATCTCATGCTCTGCGGAGTCACCTAGTGCAG; 60000 fluorescence intensity (a.u.)
AACTTGCATACCAGTGGAATTCTTCAGGCTGGTCATGGAGCGGAGTCACCTAGTGCAG; 65500 fluorescence intensity (a.u.)
TTTAATTTTATGTTTTGATTTTAATCTATATCTCTTCTCTCGGAGTCACCTAGTGCAG; 22600 fluorescence intensity (a.u.)
GTGGTTGTATTAAATATATTGATAGTTAGGTATATGAATACGGAGTCACCTAGTGCAG; 4110 fluorescence intensity (a.u.)
GTCTCGATATAATTATGAATTTTGAAATATATAAACCCATCGGAGTCACCTAGTGCAG; 8250 fluorescence intensity (a.u.)
AGATACTTAATTAGTGTCTTCTATAAGCAAAGGTCAGGAACGGAGTCACCTAGTGCAG; 11300 fluorescence intensity (a.u.)
TTTAGTAATTGGTAGAGCTCAAATTTCTAAATTTAACTTCCGGAGTCACCTAGTGCAG; 6730 fluorescence intensity (a.u.)

QUERY: Write down the reported binding signal of "GTAATTGGGAGGGAATTTCTCCTTTACTTCGCCTAAACAACGGAGTCACCTAGTGCAG" , test system: OsWOX13 (Oryza sativa, UniProt Q5QMM3 1-267).
RESULT: 14100 fluorescence intensity (a.u.)

QUERY: For OsWOX13 (Oryza sativa, UniProt Q5QMM3 1-267), provide binding signal of "GGGAGAGAATGTGCTAATTAATTGCATGCATGCATGCACGCGGAGTCACCTAGTGCAG" please.
RESULT: 12000 fluorescence intensity (a.u.)
